Biological target: T1, human CD37 (human, UniProt P11049 1-278)
T1 construct: Tetraspanin antigen; Expressed on 300-19 cells transfected with pSRa-CD37 (entire CDS) or endogenous on WSU-DLCL-2, BJAB and Ramos lymphoma cells; also called CD37 antigen; human CD37 wildtype
T1 sequence: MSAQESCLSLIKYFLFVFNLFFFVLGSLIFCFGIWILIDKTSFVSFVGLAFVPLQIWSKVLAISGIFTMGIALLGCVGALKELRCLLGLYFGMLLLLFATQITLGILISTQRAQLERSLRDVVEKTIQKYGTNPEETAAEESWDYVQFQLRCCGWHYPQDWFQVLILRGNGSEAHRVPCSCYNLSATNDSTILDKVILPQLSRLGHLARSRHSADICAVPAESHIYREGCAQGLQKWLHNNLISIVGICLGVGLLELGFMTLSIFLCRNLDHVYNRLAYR
Assay: flow cytometry titration on BJAB cells; apparent Kd
Measured Property: pKd
Numbers only, as −log10 of the molar value.

Binder	Recorded Value
muCD37-50 (antibody, mouse IgG2a, kappa, V domains shown, Murine hybridoma antibody) VH: DVQLQESGPDLLKPSQSLSLTCTVTGYSITSGFAWHWIRQFPGNKLEWMGYILYSGSTVYSPSLKSRISITRDTSKNHFFLQLNSVTTEDTATYYCARGYYGYGAWFAYWGQGTLVTVSA VL: QIVLTQSPAIMSASPGEKVTMTCSATSSVTYMHWYQQKSGTSPKRWIYDTSKLPYGVPGRFSGSGSGTSYSLTISSMEAEDAATYYCQQWSDNPPTFGSGTKLEIKR	9.22

The record that follows has no pKd shown yet.
Entry huCD37-3 (antibody, human IgG1, kappa, V domains shown, also called huCD37-3 Ab; huCD37-3 antibody) VH: QVQVQESGPGLVAPSQTLSITCTVSGFSLTTSGVSWVRQPPGKGLEWLGVIWGDGSTNYHPSLKSRLSIKKDHSKSQVFLKLNSLTAADTATYYCAKGGYSLAHWGQGTLVTVSS VL: DIQMTQSPSSLSVSVGERVTITCRASENIRSNLAWYQQKPGKSPKLLVNVATNLADGVPSRFSGSGSGTDYSLKINSLQPEDFGTYYCQHYWGTTWTFGQGTKLEIKR — recorded pKd = 9.70
